Test: chemical genetic growth profiling, strain panel (AID 1159580);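 further: tested at 20 µM; growth read once vehicle control cultures reached saturation at 30 °C; 1 = growth at the plate median or of vehicle wells; lower values mean less growth of the strain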
Conditions: S. cerevisiae deletion strains, growth OD, locus YCL069W, strain vba3, stronger effect = lower value
The campaign covered roughly 5,500 compounds. About 2,000 (36%) were called active. About 18% were inconclusive and are not listed. This is one part of the list.
Hi there, I'd appreciate the recorded normalized growth for every entry that follows.

Value lookup for normalized growth; key = Cc1cc(OC(=O)N2CCCCC2)c(C(C)C)cc1[N+](C)(C)C
1 (inactive)

// normalized growth lookup, key: CC(=O)O[C@]1(C(C)=O)CCC2C3C=C(C)C4=CC(=O)CCC4(C)C3CCC21C (stereo partly specified)
0.929 (inactive)

Form field: reported normalized growth of CC(=O)O[C@]1(C(C)=O)CCC2C3C[C@H](C)C4=CC(=O)CC[C@]4(C)C3CC[C@@]21C (stereo partly specified)
0.958 (inactive)

Return reported normalized growth; argument: CC(C)=CCc1c(O)cc2oc(C)cc(=O)c2c1O
1.01 (inactive)

What value of measured normalized growth is listed for Cc1c(N(C)C)c(=O)n(-c2ccccc2)n1C ?
1 (inactive)

Which normalized growth is listed for O=c1ccc2ccccc2o1 ?
0.98 (inactive)

# normalized growth lookup, item C[N+](C)(C)CC(=O)[O-]
0.997 (inactive)

Dear colleague, I am looking for the recorded normalized growth of the following compound: CC(=O)O[C@]1(C(C)=O)CCC2C3C=C(Cl)C4=CC(=O)CC[C@]4(C)C3CC[C@@]21C (stereo partly specified)
1.01 (inactive)

What value of normalized growth has been recorded for this entry: CC1(C)S[C@@H]2[C@H](NC(=O)[C@H](NC(=O)N3CCNC3=O)c3ccccc3)C(=O)N2C1C(=O)O (stereo partly specified)
0.996 (inactive)

I'd like to know its normalized growth. The compound in question is O=c1ccc2cc(O)c(O)cc2o1
0.999 (inactive)

Please look up its normalized growth: COc1ccc2c(c1)C1(C)CCC(=O)CC1CC2 (stereo unspecified)
1 (inactive)
